The reported numbers originate from ChEMBL document CHEMBL3098072.

# Test system: Mycobacterium tuberculosis
# Test Description: microbe, parasite or virus in culture
# Measurement Setup: H37Rv, 96 h
// reported MIC per item

                                   compound  observed_measurement
0  Cc1ccc(-c2cnnc(N3CCC(c4cccc([N+](=O)[O-])c4)C3)n2)o1 (stereo not drawn)               > 16 µM
1  O=[N+]([O-])c1cccc(-c2ccc(-c3cnnc(N4CCC(c5cccc(Cl)c5)C4)n3)cc2)c1 (stereo not drawn)              > 128 µM
2  Clc1cccc(C2CCN(c3nncc(-c4ccc5c(c4)OCO5)n3)C2)c1 (stereo not drawn)               > 16 µM
3  Cc1ccc(-c2cnnc(N3CCC(c4ccc(O)c(O)c4)C3)n2)o1 (stereo not drawn)              > 128 µM
4  O=[N+]([O-])c1cccc(-c2ccc(-c3cnnc(N4CCC(c5cccc(Cl)c5)C4)n3)o2)c1 (stereo not drawn)               > 16 µM

Summary for this compound, O=[N+]([O-])c1cccc(-c2cnnc(N3CCC(c4cccc(Cl)c4)C3)n2)c1 (stereo not drawn) : MIC is > 128 µM

// sample Cc1ccc(-c2cnnc(N3CCC(n4cnc5c(N)ncnc54)C3)n2)o1 (stereo not drawn) , its MIC was > 128 µM

The reported value for COc1ccc(C2CCN(c3nncc(-c4ccc(C)o4)n3)C2)cc1O (stereo not drawn) in terms of MIC is > 128 µM

* * *

The following compounds are listed with their measured MIC values.
# Test system: Mycobacterium tuberculosis
# Test Description: microbe, parasite or virus in culture
# Measurement Setup: H37Rv, 96 h
Kindly provide the numeric value in µM only, without the unit symbol.

In [3]: df
Out[3]:
                                   compound               tested_target  experimental_readout  observed_measurement
0  Cc1ccc(-c2cnnc(N3CCC(c4ccccc4)C3)n2)o1 (stereo not given)  Mycobacterium tuberculosis                   MIC                  40.5
1  Cc1ccc(-c2cnnc(N3CCC(c4cccc(F)c4)C3)n2)o1 (stereo not given)  Mycobacterium tuberculosis                   MIC                  38.9

Note: attention shifts to another entry.
MIC for O=[N+]([O-])c1ccc(-c2cnnc(N3CCC(c4cccc(Cl)c4)C3)n2)cc1 (stereo not given) is 31.2
